Target: U-15N-labeled talin F3 (309–405) (mouse, UniProt P26039 309-405)
Sequence (P26039 309-405): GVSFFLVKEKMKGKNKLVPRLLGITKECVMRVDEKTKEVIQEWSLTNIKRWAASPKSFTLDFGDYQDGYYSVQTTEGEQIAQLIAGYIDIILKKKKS
Assay: NMR titration
pKd: −log10 of the molar value.
measured attribute: pKd

binder="KLLITIHDRKEFAKFEEERARAKWDTANNPLYKEATSTFTNITYRGT (domain or fragment) [β3-integrin tail]" measured_attribute=pKd experimental_value=3.56
